# system name: PI3Kβ (Homo sapiens, UniProt P42338)
# Construct: made in house
# Sequence (P42338 whole entry, one chain of several): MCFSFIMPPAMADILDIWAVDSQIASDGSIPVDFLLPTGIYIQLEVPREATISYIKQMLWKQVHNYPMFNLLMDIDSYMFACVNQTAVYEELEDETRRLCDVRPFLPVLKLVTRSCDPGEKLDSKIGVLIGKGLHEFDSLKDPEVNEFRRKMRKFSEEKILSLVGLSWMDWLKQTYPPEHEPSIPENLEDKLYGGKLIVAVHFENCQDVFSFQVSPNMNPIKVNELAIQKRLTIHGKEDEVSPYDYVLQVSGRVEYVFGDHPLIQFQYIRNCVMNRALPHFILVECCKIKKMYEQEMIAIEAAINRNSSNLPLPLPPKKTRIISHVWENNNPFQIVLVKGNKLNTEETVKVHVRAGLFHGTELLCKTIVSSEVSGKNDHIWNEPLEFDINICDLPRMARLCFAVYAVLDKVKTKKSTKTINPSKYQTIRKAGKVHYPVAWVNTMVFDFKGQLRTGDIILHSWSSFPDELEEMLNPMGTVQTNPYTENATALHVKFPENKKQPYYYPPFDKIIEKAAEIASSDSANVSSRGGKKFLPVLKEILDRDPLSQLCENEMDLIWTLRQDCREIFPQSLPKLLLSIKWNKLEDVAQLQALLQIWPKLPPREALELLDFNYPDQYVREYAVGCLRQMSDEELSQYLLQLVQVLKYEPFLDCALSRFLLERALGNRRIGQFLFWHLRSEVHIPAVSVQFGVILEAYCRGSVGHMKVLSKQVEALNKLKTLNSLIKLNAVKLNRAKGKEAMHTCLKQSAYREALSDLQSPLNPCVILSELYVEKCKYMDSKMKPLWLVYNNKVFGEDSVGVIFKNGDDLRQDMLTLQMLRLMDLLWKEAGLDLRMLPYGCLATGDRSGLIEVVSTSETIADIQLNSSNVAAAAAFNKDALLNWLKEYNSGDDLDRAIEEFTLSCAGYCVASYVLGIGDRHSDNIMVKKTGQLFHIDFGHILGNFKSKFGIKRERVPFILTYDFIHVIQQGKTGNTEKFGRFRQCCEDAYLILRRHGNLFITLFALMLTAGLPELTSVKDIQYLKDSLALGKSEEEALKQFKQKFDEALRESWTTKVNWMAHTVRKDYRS
# assay protocol: TR-FRET enzymatic activity assay, PI3Kβ
# Type: biochemical
# assay conditions: recombinant heterodimeric PI3Kβ 25-50 pM, 2× Km ATP, 30 minutes at 25°C
quantity: IC50 (µM)

Some molecules with known IC50 results, for comparison:
Inquiry: Please supply the value of reported IC50 for the item C[C@H](Nc1nc(N)nc(N)c1C#N)c1nc2c(F)ccc(Cl)c2c(=O)n1N1CCN(Cc2ccccc2)CC1
Reply text: 0.013

Inquiry: Please supply the value of reported IC50 for the item C[C@H](Nc1ncnc2cccnc12)c1nc2cccc(Cl)c2c(=O)n1N1CCNCC1
Reply text: 0.019

Inquiry: Please supply the value of reported IC50 for the item Cc1cccc2nc([C@H](C)Nc3ncnc(N)c3C#N)n(C3CCNCC3)c(=O)c12
Reply text: 0.13

Inquiry: Please supply the value of reported IC50 for the item C[C@H](Nc1ncnc(N)c1C#N)c1nc2cccc(Cl)c2c(=O)n1C1CCN(CC(F)F)CC1
Reply text: 1.9

Inquiry: Please supply the value of reported IC50 for the item CN1CCN(n2c([C@@H](Nc3nc(N)nc(N)c3C#N)C3CC3)nc3cccc(Cl)c3c2=O)CC1
Reply text: 0.03

a. N#Cc1c(N)nc(N)nc1N[C@H](c1nc2cccc(Cl)c2c(=O)n1N1CCNCC1)C1CC1
b. C[C@H](Nc1nc(N)nc(N)c1Cl)c1nc2cccc(Cl)c2c(=O)n1N1CCNCC1
Inquiry: Among a and b , which shows a numerically higher IC50 result? Please identify the chosen entry by its label.
Reply text: b

A. CC[C@H](Nc1nc(N)nc(N)c1C#N)c1nc2cccc(Cl)c2c(=O)n1N1CCNCC1
B. O=c1c2c(Cl)cccc2nc([C@@H]2CCCN2c2ncnn3ccnc23)n1N1CCNCC1
C. C[C@H](Nc1ncnc(N)c1C#N)c1nc2c(Cl)ccc(Cl)c2c(=O)n1N1CCNCC1
Inquiry: Sort low-to-high on IC50, please. Returns: the labels arranged in the requested order.
Reply text: A, C, B

a. CC[C@H](Nc1ncnc(N)c1C#N)c1nc2cccc(Cl)c2c(=O)n1N1CCNCC1
b. CCN1CCC(n2c([C@H](C)Nc3ncnc4[nH]cnc34)nc3cccc(Cl)c3c2=O)C1 (stereo partly drawn)
Inquiry: Among a and b , which shows a numerically higher IC50 result? Please identify the chosen entry by its label.
Reply text: b
(b: 4.7 µM, a: 0.078 µM)

---

# system name: PI3Kδ (Homo sapiens)
# Construct: made in house
# Sequence (O00329 whole entry): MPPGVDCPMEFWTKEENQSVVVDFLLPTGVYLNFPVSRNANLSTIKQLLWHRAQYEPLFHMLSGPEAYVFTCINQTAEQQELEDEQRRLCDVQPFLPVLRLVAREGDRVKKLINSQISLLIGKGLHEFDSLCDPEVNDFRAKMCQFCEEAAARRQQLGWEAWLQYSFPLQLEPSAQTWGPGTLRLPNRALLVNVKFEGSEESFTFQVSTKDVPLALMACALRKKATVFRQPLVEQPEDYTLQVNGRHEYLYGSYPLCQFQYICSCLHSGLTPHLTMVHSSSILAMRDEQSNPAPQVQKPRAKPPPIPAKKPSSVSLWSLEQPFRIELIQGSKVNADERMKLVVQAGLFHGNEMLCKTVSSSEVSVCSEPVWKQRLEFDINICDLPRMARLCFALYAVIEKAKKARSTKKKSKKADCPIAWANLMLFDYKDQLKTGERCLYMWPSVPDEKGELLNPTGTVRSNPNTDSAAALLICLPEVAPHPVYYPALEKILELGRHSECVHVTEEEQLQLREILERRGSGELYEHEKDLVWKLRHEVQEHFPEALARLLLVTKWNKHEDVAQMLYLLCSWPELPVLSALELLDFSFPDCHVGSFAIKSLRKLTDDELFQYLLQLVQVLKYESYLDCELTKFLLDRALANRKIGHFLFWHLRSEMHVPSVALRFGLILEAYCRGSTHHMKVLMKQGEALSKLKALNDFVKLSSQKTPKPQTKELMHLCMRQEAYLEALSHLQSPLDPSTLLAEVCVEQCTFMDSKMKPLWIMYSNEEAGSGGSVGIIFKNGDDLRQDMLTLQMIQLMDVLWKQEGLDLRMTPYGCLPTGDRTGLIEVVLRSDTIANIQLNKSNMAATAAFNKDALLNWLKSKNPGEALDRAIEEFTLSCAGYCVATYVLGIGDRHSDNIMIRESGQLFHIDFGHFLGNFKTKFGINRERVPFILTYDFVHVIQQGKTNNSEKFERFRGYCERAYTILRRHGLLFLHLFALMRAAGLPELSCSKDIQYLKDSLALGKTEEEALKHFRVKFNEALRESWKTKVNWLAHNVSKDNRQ
# Sequence (P27986 whole entry partner): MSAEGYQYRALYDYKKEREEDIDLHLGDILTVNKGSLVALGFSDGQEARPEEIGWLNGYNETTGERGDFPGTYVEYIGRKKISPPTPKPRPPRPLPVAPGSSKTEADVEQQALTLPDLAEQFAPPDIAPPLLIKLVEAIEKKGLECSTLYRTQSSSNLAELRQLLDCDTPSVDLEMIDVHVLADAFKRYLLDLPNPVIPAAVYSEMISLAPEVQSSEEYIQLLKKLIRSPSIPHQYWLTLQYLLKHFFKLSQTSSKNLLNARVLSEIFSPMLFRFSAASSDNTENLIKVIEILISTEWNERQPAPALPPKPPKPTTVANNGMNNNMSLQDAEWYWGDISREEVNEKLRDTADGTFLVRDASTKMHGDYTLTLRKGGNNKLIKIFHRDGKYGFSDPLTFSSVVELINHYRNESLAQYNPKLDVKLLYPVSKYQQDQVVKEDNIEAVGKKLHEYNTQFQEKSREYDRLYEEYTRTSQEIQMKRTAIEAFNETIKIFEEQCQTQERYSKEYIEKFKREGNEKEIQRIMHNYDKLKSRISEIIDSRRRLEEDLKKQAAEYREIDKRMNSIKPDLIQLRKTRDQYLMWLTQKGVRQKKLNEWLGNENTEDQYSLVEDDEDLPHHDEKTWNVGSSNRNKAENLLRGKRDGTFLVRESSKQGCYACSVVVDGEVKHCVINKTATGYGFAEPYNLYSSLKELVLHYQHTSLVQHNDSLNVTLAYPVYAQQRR
# assay protocol: TR-FRET enzymatic activity assay, PI3Kδ
# Assay type: biochemical
# assay conditions: recombinant heterodimeric PI3Kδ 25-50 pM, 2× Km ATP, 30 minutes at 25°C
pIC50: −log10 of the molar value.
quantity: pIC50

Some compounds with known pIC50 results, for comparison:
Inquiry: With PI3Kδ (Homo sapiens) as the test system, provide measured pIC50 for this compound: C[C@H](Nc1ncnc(N)c1C#N)c1nc2c(Cl)ccc(Cl)c2c(=O)n1N1CCNCC1 [Compound 76]
Reply text: 8.70

Inquiry: With PI3Kδ (Homo sapiens) as the test system, provide measured pIC50 for this compound: C[C@H](Nc1nc(N)nc(N)c1Cl)c1nc2cccc(Cl)c2c(=O)n1N1CCN(CC(F)(F)F)CC1 [Compound 108]
Reply text: 6.77

Inquiry: With PI3Kδ (Homo sapiens) as the test system, provide measured pIC50 for this compound: CC[C@H](Nc1nc(N)nc(N)c1C#N)c1nc2cccc(Cl)c2c(=O)n1N1CCNCC1 [Compound 68]
Reply text: 8.52

P. C[C@H](Nc1nc(N)nc(N)c1C#N)c1nc2c(Cl)cc(F)cc2c(=O)n1N1CCNCC1 [Compound 126]
Q. CCN1CCC(n2c([C@H](C)Nc3ncnc4[nH]cnc34)nc3cccc(Cl)c3c2=O)C1 (some centres unmarked) [Compound 135]
Inquiry: Field: lower pIC50 | Options: P / Q Please identify the chosen entry by its label.
Reply text: Q

Origin of measurements: patent EP3154958B1
